# credit: patent US7612087B2

System: E. coli 250CF1 (Tem3)
METHOD: microbe, parasite or virus in culture
Assay type: cell-based
RUN_CONDITIONS: compound at 5 mg/l; Trial 4, 250CF1 E. coli Tem3; 24 hours at 37° C.
Assign labels as follows, please: Y for MIC of Cefotaxime in combination with the compound below 0.3 µg/mL; N for MIC of Cefotaxime in combination with the compound equal to or exceeding 0.3 µg/mL.

[[record]]
compound = "NC(=O)c1cccc(NC(=O)[C@H]2CC[C@@H]3CN2C(=O)N3OS(=O)(=O)[O-])c1.[Na+] (relative stereo) [Example 39]"
assigned_category = "Y"

[[record]]
compound = "O=C(NCc1ccccc1)[C@H]1CC[C@@H]2CN1C(=O)N2OS(=O)(=O)[O-].[Na+] (relative stereo) [Example 34]"
assigned_category = "Y"

[[record]]
compound = "CN(C)c1cccc(NC(=O)[C@H]2CC[C@@H]3CN2C(=O)N3OS(=O)(=O)[O-])c1.[Na+] (relative stereo) [Example 41]"
assigned_category = "N"

[[record]]
compound = "O=C(NCc1cccnc1)C1CCC2CN1C(=O)N2OS(=O)(=O)O (centres unmarked) [Example 43]"
assigned_category = "Y"

[[record]]
compound = "O=C(NCc1ccccn1)[C@H]1CC[C@@H]2CN1C(=O)N2OS(=O)(=O)[O-].[Na+] (relative stereo) [Example 35]"
assigned_category = "Y"

[[record]]
compound = "CN(C)c1ccc(NC(=O)[C@H]2CC[C@@H]3CN2C(=O)N3OS(=O)(=O)[O-])cc1.[Na+] (relative stereo) [Example 40]"
assigned_category = "N"

[[record]]
compound = "O=C(OCCc1ccncc1)[C@H]1CC[C@@H]2CN1C(=O)N2OS(=O)(=O)[O-].[Na+] (relative stereo) [Example 49]"
assigned_category = "Y"

